- test.description: Compound stability in human liver microsomes
- Assay type: in vitro ADME
- setup.conditions: human liver microsomes 0.5 mg protein/mL, compound 5 μM, NADPH 1.0 mM, 37° C.
measurement.kind: log10 of half-life at 5 μM (log10 of the value in min)

[
  {
    "smiles.record": "CC[C@H](Nc1ncnc(N)c1-c1noc(C)n1)c1nc2cccc(C)c2c(=O)n1-c1ccccc1C",
    "endpoint.value": 1.10
  },
  {
    "smiles.record": "CC[C@H](Nc1ncnc(N)c1-c1nc(C)no1)c1nc2cccc(F)c2c(=O)n1-c1ccccc1",
    "endpoint.value": 1.84
  },
  {
    "smiles.record": "CC[C@H](Nc1ncnc(N)c1C1=N[C@@H](C)CO1)c1nc2cccc(Cl)c2c(=O)n1C1CC1",
    "endpoint.value": 0.74
  },
  {
    "smiles.record": "CC(C)c1nc(-c2c(N)ncnc2N[C@@H](C)c2nc3cccc(Cl)c3c(=O)n2C2CC2)no1",
    "endpoint.value": 0.82
  },
  {
    "smiles.record": "CC[C@H](Nc1ncnc(N)c1-c1nc(C)no1)c1nc2cccc(Cl)c2c(=O)n1C1CC1",
    "endpoint.value": 1.66
  },
  {
    "smiles.record": "CC[C@H](Nc1ncnc(N)c1-c1nnc(C)o1)c1nc2cccc(C)c2c(=O)n1-c1ccccc1C",
    "endpoint.value": 0.88
  }
]

###

- test.description: Compound stability in rat liver microsomes
- Type: in vitro ADME
- setup.conditions: pH 7.4; rat liver microsomes; in vivo CLint extrapolated
Bucketed by reported CLint scaled at 5 μM, buckets being lower band (below 100 mL/min/kg), central band (100 mL/min/kg to below 300 mL/min/kg), upper band (300 mL/min/kg or more)

[
  {
    "smiles.record": "CC[C@H](Nc1ncnc(N)c1-c1ncnn1C)c1nc2cccc(Cl)c2c(=O)n1-c1ccccc1",
    "class.label": "lower band"
  },
  {
    "smiles.record": "CC[C@H](Nc1ncnc(N)c1-c1nnc(C)o1)c1nc2cccc(F)c2c(=O)n1C1CC1",
    "class.label": "lower band"
  },
  {
    "smiles.record": "CC[C@H](Nc1ncnc(N)c1-c1ccccn1)c1nc2cccc(Cl)c2c(=O)n1C1CC1",
    "class.label": "lower band"
  },
  {
    "smiles.record": "C[C@H](Nc1ncnc(N)c1-c1ncn(C)n1)c1nc2cccc(Cl)c2c(=O)n1C1CC1",
    "class.label": "central band"
  },
  {
    "smiles.record": "CC[C@@H](Nc1ncnc(N)c1-c1ccon1)c1nc2cccc(Cl)c2c(=O)n1C1CC1",
    "class.label": "upper band"
  },
  {
    "smiles.record": "CC[C@H](Nc1ncnc(N)c1-c1ncn(C)n1)c1nc2cccc(F)c2c(=O)n1C1CC1",
    "class.label": "lower band"
  },
  {
    "smiles.record": "CC[C@H](Nc1ncnc(N)c1-c1ncn(C)n1)c1nc2cccc(C)c2c(=O)n1C1CC1",
    "class.label": "central band"
  },
  {
    "smiles.record": "CC[C@H](Nc1ncnc(N)c1-c1nnn(C)n1)c1nc2cccc(Cl)c2c(=O)n1-c1cccc(F)c1",
    "class.label": "central band"
  },
  {
    "smiles.record": "CC[C@H](Nc1ncnc(N)c1-c1nc(COC)n(C)n1)c1nc2cccc(Cl)c2c(=O)n1C1CC1",
    "class.label": "upper band"
  },
  {
    "smiles.record": "CC[C@@H](Nc1ncnc(N)c1-c1nc(C)no1)c1nc2cccc(Cl)c2c(=O)n1C1CC1",
    "class.label": "central band"
  },
  {
    "smiles.record": "Cc1nnc(-c2c(N)ncnc2N[C@@H](C)c2nc3cccc(Cl)c3c(=O)n2-c2ccccc2)o1",
    "class.label": "lower band"
  },
  {
    "smiles.record": "CC[C@H](Nc1ncnc(N)c1-c1nc(C)no1)c1nc2cccc(Cl)c2c(=O)n1C1CC1",
    "class.label": "lower band"
  },
  {
    "smiles.record": "CC[C@H](Nc1ncnc(N)c1-c1ccon1)c1nc2cccc(F)c2c(=O)n1C1CC1",
    "class.label": "lower band"
  },
  {
    "smiles.record": "CC[C@H](Nc1ncnc(N)c1-c1ccon1)c1nc2cccc(C)c2c(=O)n1C1CC1",
    "class.label": "upper band"
  },
  {
    "smiles.record": "CC[C@H](Nc1ncnc(N)c1-c1nnc(C)o1)c1nc2cccc(C)c2c(=O)n1-c1ccccc1C",
    "class.label": "upper band"
  },
  {
    "smiles.record": "CC[C@H](Nc1ncnc(N)c1-c1nc(C)co1)c1nc2cccc(Cl)c2c(=O)n1C1CC1",
    "class.label": "upper band"
  },
  {
    "smiles.record": "CC[C@H](Nc1ncnc(N)c1-c1nnc(C)o1)c1nc2cccc(C)c2c(=O)n1C1CC1",
    "class.label": "central band"
  },
  {
    "smiles.record": "CC[C@H](Nc1ncnc(N)c1-c1noc(C)n1)c1nc2cccc(C)c2c(=O)n1C1CC1",
    "class.label": "central band"
  },
  {
    "smiles.record": "CC[C@H](Nc1ncnc(N)c1-c1ncc(C)o1)c1nc2cccc(C)c2c(=O)n1-c1ccccc1C",
    "class.label": "upper band"
  },
  {
    "smiles.record": "CC[C@H](Nc1ncnc(N)c1-c1nnc(C)o1)c1nc2ccccc2c(=O)n1-c1ccccc1F",
    "class.label": "upper band"
  },
  {
    "smiles.record": "CC[C@H](Nc1ncnc(N)c1-c1ccn(C)n1)c1nc2cccc(Cl)c2c(=O)n1C1CC1",
    "class.label": "central band"
  },
  {
    "smiles.record": "Cc1noc(-c2c(N)ncnc2N[C@@H](C)c2nc3cccc(Cl)c3c(=O)n2-c2ccccc2)n1",
    "class.label": "lower band"
  },
  {
    "smiles.record": "CCc1noc(-c2c(N)ncnc2N[C@@H](CC)c2nc3cccc(Cl)c3c(=O)n2C2CC2)n1",
    "class.label": "central band"
  },
  {
    "smiles.record": "CC[C@H](Nc1ncnc(N)c1-c1ncn(C)n1)c1nc2cccc(Cl)c2c(=O)n1-c1ccc(F)cc1",
    "class.label": "central band"
  },
  {
    "smiles.record": "CC[C@H](Nc1ncnc(N)c1-c1nnc(C)o1)c1nc2cccc(Cl)c2c(=O)n1C1CC1",
    "class.label": "lower band"
  },
  {
    "smiles.record": "CC[C@H](Nc1ncnc(N)c1-c1nnc(C)o1)c1nc2cccc(Cl)c2c(=O)n1-c1ccccc1C",
    "class.label": "central band"
  },
  {
    "smiles.record": "CC[C@H](Nc1ncnc(N)c1C1=N[C@@H](C)CO1)c1nc2cccc(Cl)c2c(=O)n1C1CC1",
    "class.label": "upper band"
  },
  {
    "smiles.record": "CC[C@H](Nc1ncnc(N)c1-c1nnc(C)o1)c1nc2cccc(Cl)c2c(=O)n1-c1cccc(F)c1",
    "class.label": "central band"
  }
]

###

- test.description: Pharmacokinetics after intravenous and oral administration in rats
- Type: in vivo, rat
- setup.conditions: rat, plasma, iv dosing, dose 1 mg/kg
The entries below come with measured AUC(0-t) values attached.

[
  {
    "smiles.record": "CC[C@H](Nc1ncnc(N)c1-c1noc(C)n1)c1nc2cccc(F)c2c(=O)n1C1CC1",
    "AUC(0-t), ng·h/mL": 249
  },
  {
    "smiles.record": "CC[C@H](Nc1ncnc(N)c1-c1nnn(C)n1)c1nc2cccc(F)c2c(=O)n1-c1ccccc1",
    "AUC(0-t), ng·h/mL": 452
  },
  {
    "smiles.record": "CC[C@H](Nc1ncnc(N)c1-c1ncn(C)n1)c1nc2cccc(C)c2c(=O)n1-c1ccccc1C",
    "AUC(0-t), ng·h/mL": 238
  },
  {
    "smiles.record": "CC[C@H](Nc1ncnc(N)c1-c1ncn(C)n1)c1nc2cccc(Cl)c2c(=O)n1C1CC1",
    "AUC(0-t), ng·h/mL": 429
  },
  {
    "smiles.record": "CC(C)c1nc(-c2c(N)ncnc2N[C@@H](C)c2nc3cccc(Cl)c3c(=O)n2C2CC2)no1",
    "AUC(0-t), ng·h/mL": 229
  },
  {
    "smiles.record": "CC[C@H](Nc1ncnc(N)c1-c1nc(C)co1)c1nc2cccc(C)c2c(=O)n1-c1ccccc1C",
    "AUC(0-t), ng·h/mL": 247
  },
  {
    "smiles.record": "CC[C@H](Nc1ncnc(N)c1-c1ncc(C)o1)c1nc2cccc(C)c2c(=O)n1-c1ccccc1C",
    "AUC(0-t), ng·h/mL": 265
  },
  {
    "smiles.record": "CC[C@H](Nc1ncnc(N)c1-c1ncnn1C)c1nc2cccc(Cl)c2c(=O)n1C1CC1",
    "AUC(0-t), ng·h/mL": 608
  },
  {
    "smiles.record": "CC[C@H](Nc1ncnc(N)c1-c1nc(C)no1)c1nc2cccc(F)c2c(=O)n1C1CC1",
    "AUC(0-t), ng·h/mL": 237
  },
  {
    "smiles.record": "CC[C@H](Nc1ncnc(N)c1-c1nc(C)no1)c1nc2cccc(C)c2c(=O)n1C1CC1",
    "AUC(0-t), ng·h/mL": 292
  },
  {
    "smiles.record": "CC[C@H](Nc1ncnc(N)c1-c1nc(COC)n(C)n1)c1nc2cccc(Cl)c2c(=O)n1C1CC1",
    "AUC(0-t), ng·h/mL": 300
  },
  {
    "smiles.record": "CC[C@H](Nc1ncnc(N)c1-c1noc(C)n1)c1nc2cccc(C)c2c(=O)n1-c1ccccc1C",
    "AUC(0-t), ng·h/mL": 223
  },
  {
    "smiles.record": "Cc1nc(-c2c(N)ncnc2N[C@@H](C)c2nc3cccc(Cl)c3c(=O)n2C2CC2)no1",
    "AUC(0-t), ng·h/mL": 241
  },
  {
    "smiles.record": "Cc1noc(-c2c(N)ncnc2N[C@@H](C)c2nc3cccc(Cl)c3c(=O)n2C2CC2)n1",
    "AUC(0-t), ng·h/mL": 200
  },
  {
    "smiles.record": "Cc1nnc(-c2c(N)ncnc2N[C@@H](C)c2nc3cccc(Cl)c3c(=O)n2-c2ccccc2)o1",
    "AUC(0-t), ng·h/mL": 596
  },
  {
    "smiles.record": "CCc1nc(-c2c(N)ncnc2N[C@@H](C)c2nc3cccc(Cl)c3c(=O)n2C2CC2)no1",
    "AUC(0-t), ng·h/mL": 169
  },
  {
    "smiles.record": "CC[C@H](Nc1ncnc(N)c1-c1nnc(C)o1)c1nc2cccc(C)c2c(=O)n1C1CC1",
    "AUC(0-t), ng·h/mL": 215
  },
  {
    "smiles.record": "C[C@H](Nc1ncnc(N)c1-c1nnn(C)n1)c1nc2cccc(Cl)c2c(=O)n1C1CC1",
    "AUC(0-t), ng·h/mL": 203
  }
]
